Test: Selectivity ratio of CC50 for human VA13 cells to CC50 for PSMA-positive human LNCAP cells
The entries below come with measured Selectivity ratio values attached.
MEASURED_METRIC: Selectivity ratio

CHEMICAL_SMILES	MEASURED_METRIC	VALUE
CC(=O)O[C@H]1C(=O)[C@@]2(C)[C@H]([C@H](OC(=O)c3ccccc3)[C@]3(O)C[C@H](OC(=O)[C@H](O)[C@@H](NC(=O)c4ccccc4)c4ccccc4)C(C)=C1C3(C)C)[C@]1(OC(C)=O)CO[C@@H]1C[C@@H]2O	Selectivity ratio	1
CC(=O)O[C@H]1C(=O)[C@@]2(C)[C@H]([C@H](OC(=O)c3ccccc3)[C@]3(O)C[C@H](OC(=O)[C@H](OC(=O)CCCc4cn(CCCCCC(=O)N(CCCC[C@H](NC(=O)N[C@@H](CCC(=O)O)C(=O)O)C(=O)O)Cc5ccc(Br)cc5)nn4)[C@@H](NC(=O)c4ccccc4)c4ccccc4)C(C)=C1C3(C)C)[C@]1(OC(C)=O)CO[C@@H]1C[C@@H]2O	Selectivity ratio	0.33
CC(=O)O[C@H]1C(=O)[C@@]2(C)[C@H]([C@H](OC(=O)c3ccccc3)[C@]3(O)C[C@H](OC(=O)[C@H](OC(=O)CCCc4cn(CCCCCC(=O)N(CCCC[C@H](NC(=O)N[C@@H](CCC(=O)O)C(=O)O)C(=O)O)Cc5ccc(Cl)cc5)nn4)[C@@H](NC(=O)c4ccccc4)c4ccccc4)C(C)=C1C3(C)C)[C@]1(OC(C)=O)CO[C@@H]1C[C@@H]2O	Selectivity ratio	0.26
CC(=O)O[C@H]1C(=O)[C@@]2(C)[C@H]([C@H](OC(=O)c3ccccc3)[C@]3(O)C[C@H](OC(=O)[C@H](OC(=O)CCCc4cn(CCCCCCCCCCC(=O)N(CCCC[C@H](NC(=O)N[C@@H](CCC(=O)O)C(=O)O)C(=O)O)Cc5ccc(Br)cc5)nn4)[C@@H](NC(=O)c4ccccc4)c4ccccc4)C(C)=C1C3(C)C)[C@]1(OC(C)=O)CO[C@@H]1C[C@@H]2O	Selectivity ratio	0.38
CC(=O)O[C@H]1C(=O)[C@]2(C)[C@@H](OC(=O)CCCc3cn(CCCCCCCCCCC(=O)NCCCC[C@H](NC(=O)N[C@@H](CCC(=O)O)C(=O)O)C(=O)O)nn3)C[C@H]3OC[C@@]3(OC(C)=O)[C@H]2[C@H](OC(=O)c2ccccc2)[C@]2(O)C[C@H](OC(=O)[C@H](O)[C@@H](NC(=O)c3ccccc3)c3ccccc3)C(C)=C1C2(C)C	Selectivity ratio	0.53
CC(=O)O[C@H]1C(=O)[C@@]2(C)[C@H]([C@H](OC(=O)c3ccccc3)[C@]3(O)C[C@H](OC(=O)[C@H](OC(=O)CCCc4cn(CCCCCC(=O)N(CCCC[C@H](NC(=O)N[C@@H](CCC(=O)O)C(=O)O)C(=O)O)Cc5ccc(F)cc5)nn4)[C@@H](NC(=O)c4ccccc4)c4ccccc4)C(C)=C1C3(C)C)[C@]1(OC(C)=O)CO[C@@H]1C[C@@H]2O	Selectivity ratio	0.59
CC(=O)O[C@H]1C(=O)[C@@]2(C)[C@H]([C@H](OC(=O)c3ccccc3)[C@]3(O)C[C@H](OC(=O)[C@H](OC(=O)CCCc4cn(CCCCCCCCCCC(=O)N(CCCC[C@H](NC(=O)N[C@@H](CCC(=O)O)C(=O)O)C(=O)O)Cc5ccc(F)cc5)nn4)[C@@H](NC(=O)c4ccccc4)c4ccccc4)C(C)=C1C3(C)C)[C@]1(OC(C)=O)CO[C@@H]1C[C@@H]2O	Selectivity ratio	0.54
CC(=O)O[C@H]1C(=O)[C@@]2(C)[C@H]([C@H](OC(=O)c3ccccc3)[C@]3(O)C[C@H](OC(=O)[C@H](OC(=O)CCCc4cn(CCCCCC(=O)NCCCC[C@H](NC(=O)N[C@@H](CCC(=O)O)C(=O)O)C(=O)O)nn4)[C@@H](NC(=O)c4ccccc4)c4ccccc4)C(C)=C1C3(C)C)[C@]1(OC(C)=O)CO[C@@H]1C[C@@H]2O	Selectivity ratio	0.47
CC(=O)O[C@H]1C(=O)[C@@]2(C)[C@H]([C@H](OC(=O)c3ccccc3)[C@]3(O)C[C@H](OC(=O)[C@H](OC(=O)CCCc4cn(CCCCCCCCCCC(=O)N(CCCC[C@H](NC(=O)N[C@@H](CCC(=O)O)C(=O)O)C(=O)O)Cc5ccc(Cl)cc5)nn4)[C@@H](NC(=O)c4ccccc4)c4ccccc4)C(C)=C1C3(C)C)[C@]1(OC(C)=O)CO[C@@H]1C[C@@H]2O	Selectivity ratio	0.43
CC(=O)O[C@H]1C(=O)[C@@]2(C)[C@H]([C@H](OC(=O)c3ccccc3)[C@]3(O)C[C@H](OC(=O)[C@H](OC(=O)CCCc4cn(CCCCCNC(=O)NCCCC[C@H](NC(=O)N[C@@H](CCC(=O)O)C(=O)O)C(=O)O)nn4)[C@@H](NC(=O)c4ccccc4)c4ccccc4)C(C)=C1C3(C)C)[C@]1(OC(C)=O)CO[C@@H]1C[C@@H]2O	Selectivity ratio	0.56
CC(=O)O[C@H]1C(=O)[C@@]2(C)[C@H]([C@H](OC(=O)c3ccccc3)[C@]3(O)C[C@H](OC(=O)[C@H](OC(=O)CCCc4cn(CCCCCCCCCCNC(=O)NCCCC[C@H](NC(=O)N[C@@H](CCC(=O)O)C(=O)O)C(=O)O)nn4)[C@@H](NC(=O)c4ccccc4)c4ccccc4)C(C)=C1C3(C)C)[C@]1(OC(C)=O)CO[C@@H]1C[C@@H]2O	Selectivity ratio	0.71
CC(=O)O[C@H]1C(=O)[C@@]2(C)[C@H]([C@H](OC(=O)c3ccccc3)[C@]3(O)C[C@H](OC(=O)[C@H](OC(=O)CCCc4cn(CCCCCCCCCCC(=O)NCCCC[C@H](NC(=O)N[C@@H](CCC(=O)O)C(=O)O)C(=O)O)nn4)[C@@H](NC(=O)c4ccccc4)c4ccccc4)C(C)=C1C3(C)C)[C@]1(OC(C)=O)CO[C@@H]1C[C@@H]2O	Selectivity ratio	0.7
CC(=O)O[C@H]1C(=O)[C@@]2(C)[C@H]([C@H](OC(=O)c3ccccc3)[C@]3(O)C[C@H](OC(=O)[C@H](OC(=O)CCCc4cn(CCCCCC(=O)N(CCCC[C@H](NC(=O)N[C@@H](CCC(=O)O)C(=O)O)C(=O)O)Cc5ccc(O)cc5)nn4)[C@@H](NC(=O)c4ccccc4)c4ccccc4)C(C)=C1C3(C)C)[C@]1(OC(C)=O)CO[C@@H]1C[C@@H]2O	Selectivity ratio	0.37

----------
Experiment: Selectivity ratio of CC50 for human PSMA-deficient PC3 cells to CC50 for PSMA-positive human 22Rv1 cells
Assay type: functional
The entries below come with measured Selectivity ratio values attached.
MEASURED_METRIC: Selectivity ratio

CHEMICAL_SMILES	MEASURED_METRIC	VALUE
CC(=O)O[C@H]1C(=O)[C@@]2(C)[C@H]([C@H](OC(=O)c3ccccc3)[C@]3(O)C[C@H](OC(=O)[C@H](OC(=O)CCCc4cn(CCCCCCCCCCC(=O)N(CCCC[C@H](NC(=O)N[C@@H](CCC(=O)O)C(=O)O)C(=O)O)Cc5ccc(Br)cc5)nn4)[C@@H](NC(=O)c4ccccc4)c4ccccc4)C(C)=C1C3(C)C)[C@]1(OC(C)=O)CO[C@@H]1C[C@@H]2O	Selectivity ratio	0.7
CC(=O)O[C@H]1C(=O)[C@@]2(C)[C@H]([C@H](OC(=O)c3ccccc3)[C@]3(O)C[C@H](OC(=O)[C@H](OC(=O)CCCc4cn(CCCCCCCCCCNC(=O)NCCCC[C@H](NC(=O)N[C@@H](CCC(=O)O)C(=O)O)C(=O)O)nn4)[C@@H](NC(=O)c4ccccc4)c4ccccc4)C(C)=C1C3(C)C)[C@]1(OC(C)=O)CO[C@@H]1C[C@@H]2O	Selectivity ratio	0.83
CC(=O)O[C@H]1C(=O)[C@@]2(C)[C@H]([C@H](OC(=O)c3ccccc3)[C@]3(O)C[C@H](OC(=O)[C@H](OC(=O)CCCc4cn(CCCCCC(=O)NCCCC[C@H](NC(=O)N[C@@H](CCC(=O)O)C(=O)O)C(=O)O)nn4)[C@@H](NC(=O)c4ccccc4)c4ccccc4)C(C)=C1C3(C)C)[C@]1(OC(C)=O)CO[C@@H]1C[C@@H]2O	Selectivity ratio	1.13

----------
The entries below come with measured Selectivity ratio values attached.
Experiment: Selectivity ratio of CC50 for human VA13 cells to CC50 for PSMA-positive human 22Rv1 cells

MOLECULE	Selectivity ratio
CC(=O)O[C@H]1C(=O)[C@@]2(C)[C@H]([C@H](OC(=O)c3ccccc3)[C@]3(O)C[C@H](OC(=O)[C@H](OC(=O)CCCc4cn(CCCCCCCCCCNC(=O)NCCCC[C@H](NC(=O)N[C@@H](CCC(=O)O)C(=O)O)C(=O)O)nn4)[C@@H](NC(=O)c4ccccc4)c4ccccc4)C(C)=C1C3(C)C)[C@]1(OC(C)=O)CO[C@@H]1C[C@@H]2O	0.93
CC(=O)O[C@H]1C(=O)[C@@]2(C)[C@H]([C@H](OC(=O)c3ccccc3)[C@]3(O)C[C@H](OC(=O)[C@H](OC(=O)CCCc4cn(CCCCCC(=O)N(CCCC[C@H](NC(=O)N[C@@H](CCC(=O)O)C(=O)O)C(=O)O)Cc5ccc(Br)cc5)nn4)[C@@H](NC(=O)c4ccccc4)c4ccccc4)C(C)=C1C3(C)C)[C@]1(OC(C)=O)CO[C@@H]1C[C@@H]2O	0.45
CC(=O)O[C@H]1C(=O)[C@@]2(C)[C@H]([C@H](OC(=O)c3ccccc3)[C@]3(O)C[C@H](OC(=O)[C@H](OC(=O)CCCc4cn(CCCCCCCCCCC(=O)N(CCCC[C@H](NC(=O)N[C@@H](CCC(=O)O)C(=O)O)C(=O)O)Cc5ccc(Br)cc5)nn4)[C@@H](NC(=O)c4ccccc4)c4ccccc4)C(C)=C1C3(C)C)[C@]1(OC(C)=O)CO[C@@H]1C[C@@H]2O	1.46
CC(=O)O[C@H]1C(=O)[C@@]2(C)[C@H]([C@H](OC(=O)c3ccccc3)[C@]3(O)C[C@H](OC(=O)[C@H](OC(=O)CCCc4cn(CCCCCC(=O)N(CCCC[C@H](NC(=O)N[C@@H](CCC(=O)O)C(=O)O)C(=O)O)Cc5ccc(O)cc5)nn4)[C@@H](NC(=O)c4ccccc4)c4ccccc4)C(C)=C1C3(C)C)[C@]1(OC(C)=O)CO[C@@H]1C[C@@H]2O	0.78
CC(=O)O[C@H]1C(=O)[C@@]2(C)[C@H]([C@H](OC(=O)c3ccccc3)[C@]3(O)C[C@H](OC(=O)[C@H](OC(=O)CCCc4cn(CCCCCCCCCCC(=O)N(CCCC[C@H](NC(=O)N[C@@H](CCC(=O)O)C(=O)O)C(=O)O)Cc5ccc(Cl)cc5)nn4)[C@@H](NC(=O)c4ccccc4)c4ccccc4)C(C)=C1C3(C)C)[C@]1(OC(C)=O)CO[C@@H]1C[C@@H]2O	0.47
CC(=O)O[C@H]1C(=O)[C@@]2(C)[C@H]([C@H](OC(=O)c3ccccc3)[C@]3(O)C[C@H](OC(=O)[C@H](OC(=O)CCCc4cn(CCCCCC(=O)N(CCCC[C@H](NC(=O)N[C@@H](CCC(=O)O)C(=O)O)C(=O)O)Cc5ccc(Cl)cc5)nn4)[C@@H](NC(=O)c4ccccc4)c4ccccc4)C(C)=C1C3(C)C)[C@]1(OC(C)=O)CO[C@@H]1C[C@@H]2O	0.7
CC(=O)O[C@H]1C(=O)[C@@]2(C)[C@H]([C@H](OC(=O)c3ccccc3)[C@]3(O)C[C@H](OC(=O)[C@H](O)[C@@H](NC(=O)c4ccccc4)c4ccccc4)C(C)=C1C3(C)C)[C@]1(OC(C)=O)CO[C@@H]1C[C@@H]2O [PACLITAXEL]	1
